Test system: NCI-H522
Experiment: NCI tumour cell line growth inhibition, 48 h
Active and inactive are the calls of the source. Cut-off read from the data, not from the text of the source: active = GI50 up to about 1.1 µM and inactive = higher.
This section presents compounds with their documented GI50 values.

Here are 5 compounds together with their reported answers.
In [3]: df
Out[3]:
                                   compound  reported_endpoint          measurement
0  CC(=O)O[C@@]1(C)[C@@H](C)C(=O)O[C@@H]2CCN3CC=C(COC(=O)[C@]1(C)O)[C@H]23               GI50  > 100 µM (inactive)
1  CCCCCCCCCc1cc(-c2ccc(C=O)s2)sc1-c1ccc(C=O)s1               GI50   15.9 µM (inactive)
2    CN(C)CCNC1=CC(=O)c2nc3ccccc3c3ccnc1c23               GI50   2.94 µM (inactive)
3  CC(C)NCCCC(C)Nc1ccnc2ccc3nn(C)nc3c12 (stereo unspecified)               GI50  > 100 µM (inactive)
4                      O=CC1=CCCC2(C1)OCCO2               GI50  > 100 µM (inactive)

# next compound below
Task: I would be grateful if you could share the reported GI50 for COc1cccc(C2CC(C)(O)Oc3cc4c(cc32)OCO4)c1O (stereo unspecified) .
Result: 20.1 µM (inactive)

---

This section presents compounds with their documented GI50 values.
System: OVCAR-3
Experiment: NCI tumour cell line growth inhibition, 48 h
Calls of active or inactive are those of the source. Cut-off read from the data, not from the text of the source: active = GI50 up to about 1.1 µM and inactive = higher.

Here are 10 compounds together with their reported answers.
Compound	System tested	GI50
Cc1cc(N(CCC#N)CCC#N)ccc1/C=C(\NC(=O)/C=C/c1ccccc1)C(=O)NN	OVCAR-3	> 100 µM (inactive)
C/C(=N\N)C(CN1CCCCC1)C(c1ccccc1)c1c(O)c2ccccc2oc1=O (stereo not given)	OVCAR-3	> 100 µM (inactive)
CC#CC#C/C=C1\C=CC2(OC=CC2OC(C)=O)O1 (stereo not given)	OVCAR-3	32.2 µM (inactive)
CCOC(=O)C1(C(=O)OCC)Nc2cccnc2N(C)N1	OVCAR-3	20.5 µM (inactive)
O=CC1=CCCC2(C1)OCCO2	OVCAR-3	> 100 µM (inactive)
N#CCCN(CCC#N)c1ccc(/C=C2\N=C(c3cc([N+](=O)[O-])ccc3Cl)N(NC(=O)CC(=O)Nc3ccccc3Cl)C2=O)cc1	OVCAR-3	> 100 µM (inactive)
CCOC(=O)c1c(-c2ccc(Cl)cc2)c(C#N)c(=S)n(C2OC(COC(C)=O)C(OC(C)=O)C(OC(C)=O)C2OC(C)=O)c1C (stereo not given)	OVCAR-3	> 100 µM (inactive)
O=C1C(=O)N(C(=O)c2ccc(Cl)c(Cl)c2)c2ccc(Cl)cc21	OVCAR-3	56.6 µM (inactive)
COc1cc([N+](=O)[O-])c(S(=O)(=O)O)cc1-n1nc(C(=O)Nc2ccccc2)n[n+]1-c1cc(S(=O)(=O)[O-])c([N+](=O)[O-])cc1OC	OVCAR-3	> 100 µM (inactive)
COc1ccc(OC)c2nc3c(C(=O)NCCN(C)C)cccc3nc12	OVCAR-3	4.93 µM (inactive)

# next compound below
Task: I would be grateful if you could share the reported GI50 for Cc1nc(N)sc1C(=O)/C=C/c1ccc([N+](=O)[O-])cc1 .
Result: > 100 µM (inactive)

---

Test system: SF-295
Experiment: NCI tumour cell line growth inhibition, 48 h
The source made the active and inactive calls. Rule as the data show it: active = GI50 up to about 1.1 µM and inactive = higher.
Lab note: assign the record to one of 1 for active, 0 for inactive

Some solved entries appear below for comparison.
Molecule	Label
Nc1cc(S(N)(=O)=O)ccc1SSc1ccc(S(N)(=O)=O)cc1N	0
COc1ccc2c3c([nH]c2c1)CCN(Cc1ccccc1)C3	0
COc1cccc(NC(=O)CC(=O)N2NC(C)C(/N=N/c3cccc(C(=O)O)c3)C2=O)c1 (configuration not stated)	0
CCn1c(=O)ccc2ccc(N(CCO)CCO)nc21	0

Lab note: next molecule to report on.
Task: # fetch the recorded call for CC(=O)OCC1OC(n2c(C)c(C(C)=O)c(-c3ccco3)c(C#N)c2=S)C(OC(C)=O)C(OC(C)=O)C1OC(C)=O (configuration not stated) here
Result: 0

---

Tested on: DLD-1
Experiment: NCI tumour cell line growth inhibition, 48 h
Activity calls are given as the source filed them. No stated cut-off is given here; in the data, active = GI50 up to about 1.1 µM and inactive = higher.
Lab note: assign the record to one of active, inactive

Some solved entries appear below for comparison.
Molecule	System tested	Label
O=C1OC(c2ccccc2)=N/C1=C/NC(CS)C(=O)O (configuration not stated)	DLD-1	inactive
CC1=CC2CC(C)=C(CC[C@]3(C)CC[C@H]([C@@H](C)C(=O)O)OO3)C(C)(C)C2CC1 (some centres not stated)	DLD-1	active
C#C[C@]1(O)CC[C@H]2[C@@H]3CCc4cc(O)ccc4[C@H]3CC[C@@]21C	DLD-1	inactive
O=C(O)Cc1ccccc1CCc1ccccc1Cl	DLD-1	inactive

Task: # fetch the recorded call for O=C(c1ccco1)N(C(=S)N1CCN(c2ccccc2)CC1)C1CCCCC1 here
Result: inactive

Task: Consider next the molecule CC(C)(C)c1cc(C2c3cc4c(cc3OC(O)(CO)C2C(=O)O)OCO4)cc(C(C)(C)C)c1O.CC(C)(C)c1cc(C2c3cc4c(cc3OC3(O)COC(=O)C23)OCO4)cc(C(C)(C)C)c1O (configuration not stated) in the same way.
Result: inactive

Task: Consider next the molecule CCOC(=N)CC(=O)Nc1cccc(Cl)c1 in the same way.
Result: inactive

Task: Consider next the molecule Cc1ccc(NC(=O)C(=O)C2C(=O)NC(=O)NC2=O)c(C)c1 in the same way.
Result: inactive

Task: Consider next the molecule N#C/C(=C\c1ccc(O)c(O)c1)C(N)=O in the same way.
Result: inactive

---

Test system: SW-620
Experiment: NCI tumour cell line growth inhibition, 48 h
The source made the active and inactive calls. No stated cut-off is given here; in the data, active = GI50 up to about 1.1 µM and inactive = higher.
This section presents compounds with their documented GI50 values.

In [3]: df
Out[3]:
                                   compound          measurement
0  CCOC(=O)c1c(-c2ccc(Cl)cc2)c(C#N)c(=S)n(C2OC(COC(C)=O)C(OC(C)=O)C(OC(C)=O)C2OC(C)=O)c1C (stereo not given)  > 100 µM (inactive)
1  CCCCCCCC(=O)OCC1OC(n2cc(F)c(=O)[nH]c2=O)C(NC(=O)OCc2ccccc2)C(O)C1O (stereo not given)  > 100 µM (inactive)
2         Cc1c(N)c(C#N)c2n(C)c3ncccc3n2c1=O  > 100 µM (inactive)
3  CC(=O)OCC1OC(OC2C(COC(C)=O)OC(Sc3ccccc3C)C(OC(C)=O)C2OC(C)=O)C(OC(C)=O)C(OC(C)=O)C1OC(C)=O (stereo not given)  > 100 µM (inactive)
4  C#C[C@]1(O)CC[C@H]2[C@@H]3CCc4cc(O)ccc4[C@H]3CC[C@@]21C   16.1 µM (inactive)

Task: I would be grateful if you could share the reported GI50 for CCn1c(=O)ccc2ccc(N(CCO)CCO)nc21 .
Result: > 100 µM (inactive)

Task: Consider next the compound S=C(Nc1ccc(Cl)cc1)c1ccc(CN2CCCCC2)s1 in the same way.
Result: 4.4 µM (inactive)

Task: Consider next the compound Cc1ccc(Nc2sc(C)cc2C#N)c([N+](=O)[O-])c1 in the same way.
Result: > 100 µM (inactive)

---

Test system: K562
Experiment: NCI tumour cell line growth inhibition, 48 h
The source made the active and inactive calls. Cut-off read from the data, not from the text of the source: active = GI50 up to about 1.1 µM and inactive = higher.
This section presents molecules with their documented GI50 values.

Here are 4 molecules together with their reported answers.
                                test_smiles  reported_endpoint          measurement
0                 c1csc(-c2cscc2-c2cccs2)c1               GI50   37.3 µM (inactive)
1  C[N+](C)(CCNC(=O)c1cccc2cc3ccccc3nc12)Cc1ccc([N+](=O)[O-])cc1               GI50  > 100 µM (inactive)
2       O=C1C(c2ccccc2)=C(O)c2cccc3cccc1c23               GI50  > 100 µM (inactive)
3     COc1ccc2c3c([nH]c2c1)CCN(Cc1ccccc1)C3               GI50   21.4 µM (inactive)

# next molecule below
Task: // fetch K562 GI50 for Cn1nnc2c3c(N(CCO)CCO)ccnc3ccc21
Result: > 100 µM (inactive)

---

System: NCI-H23
Experiment: NCI tumour cell line growth inhibition, 48 h
Active and inactive are the calls of the source. Rule as the data show it: active = GI50 up to about 1.1 µM and inactive = higher.
Lab note: assign the record to one of active, inactive

                                   molecule     label
0  COc1cc(NC(C)=O)ccc1C(=O)N/N=C/c1ccc(Cl)cc1Cl  inactive

Lab note: next molecule to report on.
Task: # fetch the recorded call for C=CCN1C(=O)/C(=C/c2ccccc2)N=C1SC1OC(COC(=O)c2ccccc2)C(OC(=O)c2ccccc2)C1OC(=O)c1ccccc1 (centres undefined) here
Result: inactive
